// values below are reported TGI
Tested on: SK-OV-3 ovarian
Assay: NCI tumour cell line growth inhibition, 48 h
Give the value, in units of µM, as a plain number.

C/C(=C/CCC(C)[C@@H]1CC[C@]2(C)C3=C(CC[C@@]12C)[C@@]1(C)CCC(=O)C(C)(C)[C@@H]1CC3)C(=O)O (some centres undefined) | 3.18

Field request: TGI | item: CO[C@H]1C(=O)[C@]2(C)[C@@H](OC)C[C@H]3OC[C@@]3(OC(C)=O)[C@H]2[C@H](OC(=O)c2ccccc2)[C@]2(O)C[C@H](OC(=O)[C@H](O)[C@@H](NC(=O)OC(C)(C)C)c3ccccc3)C(C)=C1C2(C)C
35.2

====

System: SNB-19 CNS
Assay: NCI tumour cell line growth inhibition, 48 h
Catalogue of TGI values

CC(C)Oc1cccc(N2C(CCc3c[nH]c4ccc(Br)cc34)=NS(=O)(=O)c3cnccc32)c1 | > 100 µM
CC(C)CNP(=O)(NCC(C)C)Oc1ccc(CC(NC(=O)OCc2ccccc2)C(=O)OCc2ccccc2)cc1 (stereo not drawn) | 57.8 µM
CCOC(=O)C(Cc1ccc(N=NN(C)C)cc1)NC(=O)CC1c2ccccc2-c2ccccc21 (stereo not drawn) | > 100 µM
COc1cc2c(c3c1c(=O)c1ccccc1n3C)C=C([N+](=O)[O-])C(C)(C)O2 | > 100 µM
CC(C)(C)OC(=O)N[C@H]1CC(=O)c2ccccc2N(CC(=O)O)C1=O | > 100 µM

If you can, please state the reported TGI value of O=C(O)CCCc1ccc2c(c1)C(C(=O)O)CC2 (stereo not drawn) .
> 100 µM

Tell me the measured TGI of N#Cc1ccccc1Sc1ccccc1N , please.
> 100 µM

Quick check: TGI of CC(=O)C1(C(=O)C(=[N+]=[N-])S(=O)(=O)c2ccccc2)CC1 ?
> 100 µM

====

Tested on: SNB-75 CNS
Experiment: NCI tumour cell line growth inhibition, 48 h
Measured TGI values are reported for all entries that follow.

# example entries with known answers
C/C(CCN(C)C)=N/O | 33 µM
CCOC(=O)C[C@@]12CCCN[C@]1(C)CCc1ccccc12 | > 100 µM
COc1cc2c(cc1O)C(Cc1ccc(OCc3ccccc3)c(OCc3ccccc3)c1)N(C(=O)NCCc1ccccc1)CC2 (stereo not drawn) | > 100 µM
CCOC(=O)C(Cc1ccc(N=NN(C)C)cc1)NC(=O)CC1c2ccccc2-c2ccccc21 (stereo not drawn) | > 100 µM
COc1ccc(/C(C=O)=C(\Cl)c2ccc(OC)c(OC)c2)cc1 | 60.7 µM
O=C(OCCN=c1c2ccccc2ccc2ccccc12)c1cc([N+](=O)[O-])cc([N+](=O)[O-])c1 | > 100 µM
O=C(CI)NC(=O)NC(=O)NCc1ccccc1 | 29.2 µM
COc1cccc(-c2cc(=O)c3cc(N4CCN(C)CC4)ccc3[nH]2)c1 | 65.1 µM
Cc1nnc(SCc2nc(C#N)c(C#N)nc2CSc2nnc(C)s2)s1 | 41.1 µM
CCOC(=O)[C@@H](C)C[C@H](Cc1ccccc1)NC(=O)c1csc([C@@H](C[C@H](C(C)C)N(C)C(=O)CNC(=O)[C@H]2CCCCN2C)OC(C)=O)n1 | > 14.3 µM

What value of TGI has been reported for the following compound? Clc1[nH]nc2ccccc12
> 100 µM

Looking for the measured TGI of O=C1C=CC2(O)OCC3C=C4O[C@@H]5OC6(CCCCC6)O[C@@H]5C4[C@@H]2[C@@H]13 (stereo partly drawn) , can you help?
> 100 µM

Please look up its TGI: CC1(C)C(=O)/C(=C/c2ccccc2)C(C)(C)C1(C)C
> 100 µM

====

Test system: OVCAR-5 ovarian
Assay: NCI tumour cell line growth inhibition, 48 h
property name: TGI (µM)
# value in µM; strip the unit string

Query (compound): O=C(Nc1ccc(-n2cc(-c3ccncc3)c(-c3ccc(O)c(Cl)c3)n2)cc1)Nc1cc(C(F)(F)F)cc(C(F)(F)F)c1 ; field requested: TGI
12.7

Entry CCCCCCC(=O)OC[n+]1ccc2c(C)c3[nH]c4ccc(OC)cc4c3c(C)c2c1 has what TGI?
2.75

====

Catalogue of molecules with associated GI50
System: IGROV1 ovarian
Assay: NCI tumour cell line growth inhibition, 48 h

// worked examples, GI50 included
COc1cccc(/C=N/[N-]C(N)=O)c1[O-].[Cu+2].[OH3+] | 6.14 µM
O=c1[nH]c(=S)[nH]c(O)c1/C=C1\C=Nc2ccccc21 | 1.02 µM
S=C(Sc1ccc(Cl)cc1)Sc1ccc(Cl)cc1 | 1.81 µM
CO[C@H]1C(=O)[C@]2(C)[C@@H](OC)C[C@H]3OC[C@@]3(OC(C)=O)[C@H]2[C@H](OC(=O)c2ccccc2)[C@]2(O)C[C@H](OC(=O)[C@H](O)[C@@H](NC(=O)OC(C)(C)C)c3ccccc3)C(C)=C1C2(C)C | < 0.01 µM
CC[n+]1c(-c2ccccc2)c2cc(N)ccc2c2ccc(N)cc21 | 0.522 µM
CCOC(=O)c1cn(C)c2c(OC)c3ccccc3c(OC)c2c1=O | 52.6 µM
CC(=O)Nc1cccc(C#Cc2cncnc2Nc2ccc(OCc3cccc(F)c3)c(Cl)c2)c1 | 4.49 µM

Alright, here's another molecule for you.
Look at this molecule and give its reported GI50. Oc1cn(-c2ccc(Cl)cc2)nc1-c1n[nH]c(=S)n1-c1ccc(F)cc1
7.12 µM

====

In this section, each of the molecules is paired with its reported TGI.
Tested on: DLD-1 colon
Assay: NCI tumour cell line growth inhibition, 48 h

O=C(O)c1ccccc1C(=O)c1ccco1 | > 100 µM
O=C(Nc1ccccc1C(=O)NC(=O)c1ccccc1NC(=O)c1ccccc1)c1ccccc1 | 29.7 µM
CC(C)(C)OC(=O)N[C@H]1CC(=O)c2ccccc2N(CC(=O)O)C1=O | > 100 µM

For the molecule CCCC(O)[C@@]1(CC)CC(C)C(O)(C2(C)C[C@H](C)[C@@H](C(CC)C(=O)C(C)[C@@H](O)[C@H](C)C3OC(O)(C(CC)C(=O)O)[C@@H](C)C(O)C3CC)O2)O1 (stereo not given in full) , what TGI is on record?
8.86 µM

Recorded TGI for COS(=O)c1cc(Cl)cc(Cl)c1OC(=O)CSSCC(=O)Oc1c(Cl)cc(Cl)cc1S(=O)OC (stereo not given) , please?
40.7 µM

I would be grateful if you could share the reported TGI for O=C([O-])c1ccc([I+]c2ccccc2)cc1 .
> 100 µM

// query TGI value for entry O=C1OC(=O)c2c1nc1ccccc1c2-c1ccccc1
> 100 µM

Name the reported TGI value associated with the molecule Cc1nc2ccncc2[nH]1
> 100 µM

If you can, please state the reported TGI value of COCc1cc2c(s1)C(=O)C1=C(C2=O)C2(C=C(Br)C(=O)C(Br)=C2)CCN1 .
24.4 µM

Bench note: what TGI did CCC12CCC[C@@]13C=C[C@H](O3)C(C)(C)C2=O (stereo not given in full) show?
> 100 µM

====

Some compounds, each annotated with its measured TGI.
System: PC-3 prostate
Test: NCI tumour cell line growth inhibition, 48 h
# output: bare number, implied unit µM

Check out these entries, answers already filled in.
O=c1[nH]c2ccccc2cc1-c1nnc(Cc2ccccc2)o1 | 70.6
COc1cc2c(cc1OC)C1=C(C=O)c3ccc(OC)c(OC)c3C(O)N1CC2 (stereo unspecified) | 54

For the compound COCc1cc2c(s1)C(=O)C1=C(C2=O)C2(C=C(Br)C(=O)C(Br)=C2)CCN1 , what TGI is on record?
12.1

Entry O=c1[nH]c(=S)[nH]c(O)c1/C=C1\C=Nc2ccccc21 : reported TGI = ?
73.3

Need TGI of CN(C)CCCOc1ccc(NC2=C(Cl)C(=O)C(Nc3ccc(OCCCN(C)C)cc3)=C(Cl)C2=O)cc1 , thanks.
2.76

What does the record list as TGI for O=C(CI)NC(=O)NC(=O)NCc1ccccc1 ?
30.7

Report TGI for CC(C)(C)O/N=C/c1cc(NC(=S)c2ccccc2)ccc1Cl please.
46

What value of TGI has been recorded for this entry: O=[N+]([O-])/C=C/c1ccc2ccccc2c1
14

// returns reported TGI for input C/C(=N/NC(=S)Nc1ccc(C)cc1)c1ccccn1
13.7

====

Tested on: BT-549 breast
Experiment: NCI tumour cell line growth inhibition, 48 h
Recorded measurements of TGI, one per entry

Recorded TGI, per entry:
COC(=O)CCC(C)[C@H]1CCC2C3CC[C@@H]4CC5(CC[C@]4(C)C3C[C@H](OC(C)=O)[C@@]21C)OOC1(CCCCC1)OO5 (some centres undefined) | > 100 µM
CCOC(=O)[C@@H](C)C[C@H](Cc1ccccc1)NC(=O)c1csc([C@@H](C[C@H](C(C)C)N(C)C(=O)CNC(=O)[C@H]2CCCCN2C)OC(C)=O)n1 | > 14.3 µM
CCc1ccc(Oc2c(-c3ccc(OCc4ccc(Cl)cc4)cc3O)nn(C)c2C(F)(F)F)cc1 | 3.34 µM

Kindly consider the entry below.
What TGI value was documented for this compound, Cc1ccc(S(=O)(=O)OCCN(CCOS(=O)(=O)c2ccc(C)cc2)c2ccc(C=O)cc2)cc1 ?
> 100 µM
